Target: CDK2/Cyclin A (Homo sapiens)
Test: Inhibition of CDK2/Cyclin A kinase activity (ADP-Glo)
Type: biochemical
Conditions: mean of multiple measurement series; ATP 50 μM; read-out: CDK2/Cyclin A IC50
A collection of molecules and their measured IC50
Supply the numeric figure in µM, leaving out any unit text.

Examples from the recorded data:
[
  {
    "MOLECULE": "O=c1c2[nH]cc(-c3nc(N[C@H]4CCCNC4)ncc3C(F)(F)F)c2ccn1Cc1ccccc1 [CDK7_961]",
    "IC50, µM": 3.7
  },
  {
    "MOLECULE": "Cn1cc(-n2ccc3c(-c4nc(N[C@H]5CCC(C)(C)NC5)ncc4C(F)(F)F)c[nH]c3c2=O)cn1 [CDK7_1123]",
    "IC50, µM": 35.2
  },
  {
    "MOLECULE": "CC(C)N1CCCc2c(-c3nc(N[C@H]4CCC(C)(C)NC4)ncc3C(F)(F)F)c[nH]c2C1=O [CDK7_1229]",
    "IC50, µM": 22.9
  }
]

Give IC50 for the following molecule: Cn1cc(-n2ccc3c(-c4nc(N[C@H]5CCCNC5)ncc4C(F)(F)F)c[nH]c3c2=O)cn1 [CDK7_959]
5.26
